Consider molecules characterized by their log10 of IC50 with hERG channel (Homo sapiens, UniProt Q12809).
Sequence (Q12809 whole entry): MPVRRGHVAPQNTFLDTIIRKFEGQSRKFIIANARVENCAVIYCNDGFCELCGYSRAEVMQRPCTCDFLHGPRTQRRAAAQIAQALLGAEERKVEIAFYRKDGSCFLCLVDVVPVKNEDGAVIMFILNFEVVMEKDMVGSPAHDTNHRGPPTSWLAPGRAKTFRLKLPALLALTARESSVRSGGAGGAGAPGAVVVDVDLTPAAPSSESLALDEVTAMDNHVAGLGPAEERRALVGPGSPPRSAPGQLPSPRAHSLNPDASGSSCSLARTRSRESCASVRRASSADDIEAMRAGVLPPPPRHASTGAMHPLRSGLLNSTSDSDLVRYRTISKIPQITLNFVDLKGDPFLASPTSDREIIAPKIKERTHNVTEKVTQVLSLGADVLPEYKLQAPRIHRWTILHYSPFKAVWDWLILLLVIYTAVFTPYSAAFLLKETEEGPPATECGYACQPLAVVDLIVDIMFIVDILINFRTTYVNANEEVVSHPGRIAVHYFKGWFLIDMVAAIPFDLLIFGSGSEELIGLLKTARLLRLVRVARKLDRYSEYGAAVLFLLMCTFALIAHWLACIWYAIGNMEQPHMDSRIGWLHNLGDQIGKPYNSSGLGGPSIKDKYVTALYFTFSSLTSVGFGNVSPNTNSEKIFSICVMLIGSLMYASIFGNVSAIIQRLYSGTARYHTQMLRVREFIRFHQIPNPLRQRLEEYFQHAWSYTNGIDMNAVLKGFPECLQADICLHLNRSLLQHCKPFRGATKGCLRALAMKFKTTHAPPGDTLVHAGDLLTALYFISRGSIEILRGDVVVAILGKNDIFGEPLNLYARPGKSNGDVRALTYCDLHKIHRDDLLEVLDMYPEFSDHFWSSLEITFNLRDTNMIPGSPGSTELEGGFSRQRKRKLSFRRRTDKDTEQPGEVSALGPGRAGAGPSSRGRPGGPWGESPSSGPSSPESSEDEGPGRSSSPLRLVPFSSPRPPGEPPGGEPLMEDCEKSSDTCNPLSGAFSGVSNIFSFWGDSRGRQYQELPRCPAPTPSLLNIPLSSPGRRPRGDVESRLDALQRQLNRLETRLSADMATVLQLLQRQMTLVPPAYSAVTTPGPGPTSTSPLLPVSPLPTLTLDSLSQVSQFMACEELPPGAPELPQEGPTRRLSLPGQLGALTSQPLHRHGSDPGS
Record value = log10 of IC50 given in nM.

molecule: COc1cccc(CCC2CCN(CCc3ccccc3OC)CC2)c1 [Compound 15]
log10 of IC50: 2.90

molecule: COc1ccc(CCC2CCN(CCc3ccc(F)cc3)CC2)c(F)c1 [Compound 41]
log10 of IC50: 3.56

molecule: COc1cccc(CCN2CCN(CCc3cccc(OC)c3)CC2)c1 [Compound 56]
log10 of IC50: 3.17

Problem: Need log10 of IC50, item COc1ccccc1CCN1CCC(CCc2ccc(F)cc2F)CC1 [Compound 31]
Solution: 2.50

Problem: Need log10 of IC50, item COc1ccccc1CCN1CCC(CCc2cc(F)cc(F)c2)CC1 [Compound 43]
Solution: 2.63

Problem: Need log10 of IC50, item COc1ccc(CCN2CCN(CCc3ccccc3)CC2)cc1 [Compound 62]
Solution: 3.96

Problem: Need log10 of IC50, item Fc1ccc(CCN2CCC(CCc3ccc(F)cc3F)CC2)cc1 [Compound 35]
Solution: 2.30

Problem: Need log10 of IC50, item COc1ccccc1CCN1CCN(CCc2ccccc2)CC1 [Compound 60]
Solution: 3.50

Problem: Need log10 of IC50, item COc1ccccc1CCC1CCN(CCc2ccc(F)cc2)CC1 [Compound 29]
Solution: 2.54

Problem: Need log10 of IC50, item COc1cccc(CCC2CCN(CCc3cccc(OC)c3)CC2)c1 [Compound 16]
Solution: 2.75

====

# pKi annotations
# target of assay: dopamine transporter (DAT) (Rattus norvegicus)
# Sequence (P23977 whole entry): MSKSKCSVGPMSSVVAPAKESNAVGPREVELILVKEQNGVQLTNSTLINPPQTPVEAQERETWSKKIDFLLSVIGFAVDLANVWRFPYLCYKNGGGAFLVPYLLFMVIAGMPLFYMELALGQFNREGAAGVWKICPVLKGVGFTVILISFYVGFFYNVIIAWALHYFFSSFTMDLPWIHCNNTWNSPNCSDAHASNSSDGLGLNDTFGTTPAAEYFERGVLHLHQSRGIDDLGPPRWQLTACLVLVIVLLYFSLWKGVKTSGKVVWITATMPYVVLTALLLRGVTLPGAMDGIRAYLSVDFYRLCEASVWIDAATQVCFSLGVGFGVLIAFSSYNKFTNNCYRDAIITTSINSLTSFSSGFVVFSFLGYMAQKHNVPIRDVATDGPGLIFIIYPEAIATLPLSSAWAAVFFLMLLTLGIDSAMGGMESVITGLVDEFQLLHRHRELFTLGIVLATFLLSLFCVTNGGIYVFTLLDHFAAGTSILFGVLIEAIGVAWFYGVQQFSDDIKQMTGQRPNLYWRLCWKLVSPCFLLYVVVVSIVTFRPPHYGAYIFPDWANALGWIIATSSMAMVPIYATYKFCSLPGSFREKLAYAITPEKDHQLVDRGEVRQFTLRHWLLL
# assay info: [3H]DA uptake assay, striatal synaptosomal preparation
# assay setup: rat striatal synaptosomes; read-out: DAT [3H]DA Uptake Inhibition Mean ± SEM (Ki)
pKi (log units): -log10 of the concentration in mol/L.

chemical string: COc1ccccc1CCC1CCN(CCc2ccccc2OC)CC1
readout kind: pKi
reported value: 5.46

Problem: For dopamine transporter (DAT) (Rattus norvegicus), provide pKi of COc1cccc(CCN2CCC(CCc3ccc(OC)cc3F)CC2)c1 please.
Solution: 5.53

Problem: For dopamine transporter (DAT) (Rattus norvegicus), provide pKi of Clc1ccccc1CCN1CCN(CCc2ccccc2)CC1 please.
Solution: 4.98

Problem: For dopamine transporter (DAT) (Rattus norvegicus), provide pKi of COc1ccc(CCC2CCN(CCc3ccc(F)cc3)CC2)c(F)c1 please.
Solution: 5.46

Problem: For dopamine transporter (DAT) (Rattus norvegicus), provide pKi of COc1cccc(CCN2CCC(CCc3ccccc3)CC2)c1 please.
Solution: 5.50

Problem: For dopamine transporter (DAT) (Rattus norvegicus), provide pKi of COc1cccc(CCN2CCN(CCc3cccc(OC)c3)CC2)c1 please.
Solution: 5.10

Problem: For dopamine transporter (DAT) (Rattus norvegicus), provide pKi of Fc1ccc(CCN2CCN(CCc3ccc(F)cc3)CC2)cc1 please.
Solution: 5.18

Problem: For dopamine transporter (DAT) (Rattus norvegicus), provide pKi of c1ccc(CCN2CCN(CCc3ccccc3)CC2)cc1 please.
Solution: 4.87

Problem: For dopamine transporter (DAT) (Rattus norvegicus), provide pKi of COc1ccccc1CCN1CCN(CCc2ccccc2OC)CC1 please.
Solution: 4.84

Problem: For dopamine transporter (DAT) (Rattus norvegicus), provide pKi of COc1ccccc1CCC1CCN(CCc2ccc(F)cc2)CC1 please.
Solution: 5.38
